Each entry below carries its reported TGI.
tested on: SK-MEL-28 melanoma; experiment: NCI tumour cell line growth inhibition, 48 h
Your answer should be a plain number; it is taken to be in µM.

Q) For the molecule shown here, `Cn1cc(C2=C(c3cn(C)c4ccc(Cl)cc34)C(=O)NC2=O)c2ccccc21` , give the reported TGI.
A) 19.6

Please find the next molecule below.
Q) For the molecule shown here, `C/C(=N\Nc1nc2cc(C(F)(F)F)ccc2s1)c1ccccn1` , give the reported TGI.
A) 5.74

###

Each entry below carries its reported TGI.
tested on: UACC-62 melanoma; experiment: NCI tumour cell line growth inhibition, 48 h

Some compounds with known TGI results, for comparison:
Q) Given the entry NNC(=O)C1(NC(=O)c2ccccc2)C(c2ccccc2)C(c2ccccc2)=NN1c1ccccc1 (stereo unspecified) , what TGI was observed with UACC-62 melanoma?
A) 56.9 µM

Q) Given the entry `COC[C@@H](N=Cc1ccc([N+](=O)[O-])cc1)C(C)C` , what TGI was observed with UACC-62 melanoma?
A) > 100 µM

Q) Given the entry `O=C(O)COc1cc(-c2ccccc2)nc2cc(F)ccc12` , what TGI was observed with UACC-62 melanoma?
A) > 100 µM

Q) Given the entry `CC(C)(C)OC(=O)NCCCn1c2c(c3ccccc3c1=O)C(=O)c1ccccc1-2` , what TGI was observed with UACC-62 melanoma?
A) 53.6 µM

Q) Given the entry `C#Cc1nc2ccccc2c(=O)[nH]1` , what TGI was observed with UACC-62 melanoma?
A) 1.03 µM

Please find the next compound below.
Q) Given the entry `c1cncc(CNCc2cccnc2)c1` , what TGI was observed with UACC-62 melanoma?
A) > 100 µM
